The measured values listed here are drawn from PubChem BioAssay AID2060884.

Listed below: viability, T/C values for each entry.
- Tested on: NCI-H929 complex spheroids, viability % test/control
- method summary: Anticancer human tumor NCI-H929 cell line growth inhibition [RAS];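 also: compound exposure lasted seven days before viability was read; 100% = DMSO vehicle control viability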
- test settings: second compound 1 µM; first compound 3.16 µM; stronger effect = lower value

[
  {
    "compound": "Cc1nc(N2CCC3(CC2)COC(C)C3N)c(CO)nc1Sc1ccnc(N)c1Cl (stereo not drawn) + C#Cc1c(F)ccc2cc(O)cc(-c3ncc4c(N5CC6CCC(C5)N6)nc(OCC56CCCN5CC(F)C6)nc4c3F)c12",
    "readout units": "%",
    "viability, T/C": 103
  },
  {
    "compound": "NC1c2ccccc2OC12CCN(c1cnc3c(N4CCCc5ncccc54)n[nH]c3n1)CC2 (stereo not drawn) + C#Cc1c(F)ccc2cc(O)cc(-c3ncc4c(N5CC6CCC(C5)N6)nc(OCC56CCCN5CC(F)C6)nc4c3F)c12",
    "readout units": "%",
    "viability, T/C": 99.7
  },
  {
    "compound": "Cc1nc(N2CCC3(CC2)COC(C)C3N)c(CO)nc1Sc1ccnc(N)c1Cl (stereo not drawn) + C=CC(=O)N1CCN(c2nc(OCC3CCCN3C)nc3c(F)c(-c4nc(N)cc(C)c4C(F)(F)F)c(Cl)cc23)C(C)C1",
    "readout units": "%",
    "viability, T/C": 109
  }
]
